- MEASUREMENT TARGET: Y61A9LA.9 (Y61A9LA.9) (Caenorhabditis elegans)
- Sequence: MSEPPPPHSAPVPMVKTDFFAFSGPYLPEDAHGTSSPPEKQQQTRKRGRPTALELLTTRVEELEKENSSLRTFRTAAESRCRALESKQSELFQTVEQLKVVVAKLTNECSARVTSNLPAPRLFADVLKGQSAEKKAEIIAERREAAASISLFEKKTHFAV
PROPERTY LABEL: binding signal (PBM E-score (-0.5 to 0.5))
One number for each entry.

A selection of reference data follows.
AAATATTA (double strand) [8-mer AAATATTA] :: 0.456
ATATTAAT (double strand) [8-mer ATATTAAT] :: 0.453
AAAATATT (double strand) [8-mer AAAATATT] :: 0.451
AAATATAT (double strand) [8-mer AAATATAT] :: 0.452
AAATAAAT (double strand) [8-mer AAATAAAT] :: 0.452

Would you be so kind as to report binding signal (PBM E-score (-0.5 to 0.5)) for each listed record?
1. AAATAATT (double strand) [8-mer AAATAATT]
2. AATATATT (double strand) [8-mer AATATATT]

Resp:
1. 0.457
2. 0.465

---

- MEASUREMENT TARGET: nhr-232 (Y22F5A.1) (Caenorhabditis elegans)
- Sequence: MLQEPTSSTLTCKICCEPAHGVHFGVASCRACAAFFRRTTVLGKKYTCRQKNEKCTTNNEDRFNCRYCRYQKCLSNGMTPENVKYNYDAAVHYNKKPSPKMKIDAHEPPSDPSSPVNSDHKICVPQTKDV
Exercise: for every item that follows, state its recorded binding signal (PBM E-score (-0.5 to 0.5)).
One number for each entry.

Some sequences with recorded binding signal (PBM E-score (-0.5 to 0.5)):
TAGTCACA (double strand) [8-mer TAGTCACA] :: 0.482
GGTCACAA (double strand) [8-mer GGTCACAA] :: 0.485

As a next step, examine the sequence that follows.
Req: Give the reported binding signal (PBM E-score (-0.5 to 0.5)) for GACACAAA (double strand) [8-mer GACACAAA] (system: nhr-232 (Y22F5A.1) (Caenorhabditis elegans)).
Resp: 0.475

---

- MEASUREMENT TARGET: atf-5 (T04C10.4) (Caenorhabditis elegans) (UniProt Q22156)
- Sequence: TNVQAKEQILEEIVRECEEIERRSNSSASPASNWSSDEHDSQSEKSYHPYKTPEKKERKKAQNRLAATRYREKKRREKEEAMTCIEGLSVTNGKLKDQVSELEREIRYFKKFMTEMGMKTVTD
PROPERTY LABEL: binding signal (PBM E-score (-0.5 to 0.5))
Answers are plain numbers.

Below, each entry is followed by its recorded binding signal (PBM E-score (-0.5 to 0.5)) result.
ACGTCATC (double strand) [8-mer ACGTCATC] :: 0.49
ATGACGTC (double strand) [8-mer ATGACGTC] :: 0.468

--- query ---
Req: Return reported binding signal (PBM E-score (-0.5 to 0.5)); argument: TGATATCA (double strand) [8-mer TGATATCA]
Resp: 0.474

---

Record: binding signal (PBM E-score (-0.5 to 0.5)) reported on ZC328.2 (ZC328.2) (Caenorhabditis elegans) (UniProt O02050).
Sequence (O02050 entry or part of it): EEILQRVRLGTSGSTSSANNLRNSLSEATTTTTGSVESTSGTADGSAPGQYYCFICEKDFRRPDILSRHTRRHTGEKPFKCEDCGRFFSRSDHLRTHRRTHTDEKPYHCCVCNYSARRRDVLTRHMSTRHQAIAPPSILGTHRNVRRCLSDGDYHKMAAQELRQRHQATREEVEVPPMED

ACCCCCGC (double strand) [8-mer ACCCCCGC] :: 0.492
CCCCACGC (double strand) [8-mer CCCCACGC] :: 0.485
CCGCCTAC (double strand) [8-mer CCGCCTAC] :: 0.488

Req: Name the reported binding signal (PBM E-score (-0.5 to 0.5)) value associated with the sequence CGCCCCCG (double strand) [8-mer CGCCCCCG]
Resp: 0.489
